Origin of measurements: paper PMC11433679

- assay-notes: Cytotoxicity assay (Cell-Titer GLO, ATP levels, 72 h)
- Type: cell-based, human
- condition-description: human, Huh7 cells, 72 h treatment, 4–500 µM
metric-name: CC50 at 72 h

* Oc1ccc(CCNCc2ccc(O)c(O)c2)cc1 [Norbelladine] | 233 µM
* COc1ccc(CNCCc2ccc(O)cc2)cc1OC [3′,4′-O-dimethylnorbelladine] | > 500 µM
* COc1ccc(CN(C)CCc2ccc(O)cc2)cc1O [4′-O,N-dimethylnorbelladine] | 460 µM

Exercise: Record request: CC50 at 72 h value, item CN(CCc1ccc(O)cc1)Cc1ccc(O)c(O)c1 [N-methylnorbelladine]
Key: 386 µM

Exercise: Subsequent entry: COc1cc(CNCCc2ccc(O)cc2)ccc1O [3′-O-methylnorbelladine]
Key: > 500 µM

Exercise: Try the compound COc1ccc(CNCCc2ccc(O)cc2)cc1O [4′-O-methylnorbelladine]
Key: > 500 µM
